Target: CK2A1 (CK2α/β) (Homo sapiens, UniProt P68400)
Sequence (P68400 whole entry, species assumed): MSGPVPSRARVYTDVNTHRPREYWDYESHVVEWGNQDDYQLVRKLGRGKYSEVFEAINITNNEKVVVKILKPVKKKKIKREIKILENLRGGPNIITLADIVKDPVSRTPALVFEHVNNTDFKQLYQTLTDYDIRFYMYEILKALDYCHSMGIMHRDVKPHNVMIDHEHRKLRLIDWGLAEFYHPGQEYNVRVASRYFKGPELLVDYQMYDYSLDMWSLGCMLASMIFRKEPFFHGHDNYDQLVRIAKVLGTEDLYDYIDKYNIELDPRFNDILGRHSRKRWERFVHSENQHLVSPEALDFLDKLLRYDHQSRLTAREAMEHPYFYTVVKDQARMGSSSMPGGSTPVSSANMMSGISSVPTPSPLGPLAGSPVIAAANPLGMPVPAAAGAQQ
Sequence (P67870 whole entry partner, species assumed): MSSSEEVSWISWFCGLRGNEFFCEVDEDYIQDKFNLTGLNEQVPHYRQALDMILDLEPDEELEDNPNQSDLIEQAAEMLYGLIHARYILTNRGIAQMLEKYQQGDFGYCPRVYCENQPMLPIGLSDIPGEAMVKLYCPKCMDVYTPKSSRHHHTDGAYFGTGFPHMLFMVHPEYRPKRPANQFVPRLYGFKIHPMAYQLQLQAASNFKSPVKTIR
Test: CK2 kinase assay, CK2A1 (CK2α/β)
Type: biochemical
Conditions: Table A; read-out: CK2A1 (CK2α/β) (IC50)
pIC50: −log10 of the molar value.
Label true (1) when pIC50 >= 9; otherwise false (0).

| compound | class assignment |
| --- | --- |
| COC(=O)N[C@H]1CCN(c2cc(C#N)cc(Nc3nc(NC4CC4)c4ncc(C#N)n4n3)c2Cl)C[C@@H]1OC(=O)Cc1ccc(OP(=O)(O)O)cc1 | true (1) |
| N#Cc1cc(Nc2nc(NC3CC3)c3ncc(C#N)n3n2)c(Cl)c(C(O)C(F)(F)F)c1 (racemic) | false (0) |
| COC(=O)Nc1cc(Nc2nc(NC3CC3)c3ncc(C#N)n3n2)c(F)c(N2CCN(C)CC2)c1 | false (0) |
| CCNc1nc(Nc2cc(C#N)cc(N3CC[C@@H](NC(=O)OC)[C@H](OP(=O)(O)O)C3)c2Cl)nn2c(C#N)cnc12 | false (0) |
| N#Cc1cc(Nc2nc(NC3CC3)c3ncc(C#N)n3n2)c(Cl)cc1CCCN1CCOCC1 | false (0) |
